Exercise: for every item that follows, state its recorded HepG2 cells mean TOX50.
# Tested on: HepG2 cells
# procedure.text: HepG2 cytotoxicity assay
# Format: cell-based
# assay.context: HepG2 cells; mean
Please respond with the number in µM and leave the unit unwritten.

Incoming: What value of measured HepG2 cells mean TOX50 is listed for CCc1cc2c(Sc3nnc(N)s3)ncnc2s1 [TCMDC-123993] ?
Outgoing: 32.30

Incoming: Can you check O=C(Nc1nc(-c2ccccn2)cs1)c1ccc(S(=O)(=O)N2CCc3ccccc32)cc1 [TCMDC-125432] next?
Outgoing: 29.22

Incoming: Can you check COc1cc2nc(N3CCN(c4nc(N)c5cc(OC)c(OC)cc5n4)CC3)nc(N)c2cc1OC [TCMDC-123865] next?
Outgoing: 52.49

Incoming: Can you check O=C(O)C(F)(F)F.O=S(=O)(NCCN1CCCC1)c1ccc(-c2ccc(CNC3Cc4ccccc4C3)cc2)s1 [TCMDC-132234] next?
Outgoing: 5.83

Incoming: Can you check CCC(CSC1CCCCC1)N(C)CCN(C)C(CC)CSC1CCCCC1.Cl (centres unmarked) [TCMDC-131456] next?
Outgoing: 0.0654

Incoming: Can you check CN(C)Cc1cccc2nc(-c3csc(Cc4cc(Cl)ccc4OCc4ccccc4)n3)[nH]c12 [TCMDC-132174] next?
Outgoing: 13.04

Incoming: Can you check O=C(O)C(F)(F)F.O=S(=O)(NCCN1CCCC1)c1ccc(-c2cccc(CNC3Cc4ccccc4C3)c2)cc1 [TCMDC-132215] next?
Outgoing: 6.03

Incoming: Can you check CNCCCNCc1ccc(-c2ccc(F)c(Cl)c2)o1.Cl [TCMDC-125237] next?
Outgoing: 10.60

Incoming: Can you check CC(Nc1cc(-c2ccccn2)nc(-c2ccccn2)n1)c1ccccc1 (centres unmarked) [TCMDC-125420] next?
Outgoing: 6.18

Incoming: Can you check Br.CCc1c(CCNCCCCCCNCCc2ccc(Br)cc2)ccc(O)c1O [TCMDC-132044] next?
Outgoing: 7.96

Incoming: Can you check FC(F)(F)c1ccc2[nH]c(-c3cccc(-c4ccc(CNCCN5CCNCC5)cc4)c3)nc2c1.O=C(O)C(F)(F)F [TCMDC-132872] next?
Outgoing: 8.81

Incoming: Can you check CCN1CCN(c2ccc(Nc3c4ccccc4nc4ccccc34)cc2)CC1 [TCMDC-124255] next?
Outgoing: 4.57

Incoming: Can you check CC(C)c1ccc(CN2CCC(CNC(=O)c3cc(-c4ccccc4F)cs3)C2)cc1.O=C(O)C(F)(F)F (centres unmarked) [TCMDC-134436] next?
Outgoing: 9.14

Incoming: Can you check COc1cc(-c2cc(-c3ccc(S(C)(=O)=O)cc3)cnc2N)ccc1O [TCMDC-133343] next?
Outgoing: 41.69

Incoming: Can you check COc1cccc(-c2csc(C(=O)NCC3CCN(Cc4ccc(C(C)C)cc4)C3)c2)c1.O=C(O)C(F)(F)F (centres unmarked) [TCMDC-134439] next?
Outgoing: 11.51
